Reference source: patent US20040009599A1

Hi there, I'd appreciate the recorded % Inhibition of Cellular Inhibitor of Apoptosis-1 mRNA levels for every entry that follows.
- System: human Cellular Inhibitor of Apoptosis-1 RNA
- measurement description: Inhibition of Cellular Inhibitor of Apoptosis-1 mRNA levels by quantitative real-time PCR after oligonucleotide treatment of cells
- Format: cell-based
- condition label: phosphorothioate oligodeoxynucleotides; oligonucleotide at final concentration of 150 nM with LIPOFECTIN; real-time PCR; averages from three experiments
Strand notation (5' to 3'): a small letter for the sugar, then the base; units joined by * are phosphorothioate-linked, units joined directly phosphodiester-linked; [ ] holds rarer units or linkages, { } end groups; capitals alone tell only the bases. d = 2'-deoxy (DNA)
Answers are plain numbers, in %.

Example entries begin here.
Assay human Cellular Inhibitor of Apoptosis-1 RNA, sample ISIS 23362: phosphorothioate oligodeoxynucleotide ataattggtgggtcagca, Coding target site 2269 (antisense dA*dT*dA*dA*dT*dT*dG*dG*dT*dG*dG*dG*dT*dC*dA*dG*dC*dA) , % Inhibition of Cellular Inhibitor of Apoptosis-1 mRNA levels read: 0

Assay human Cellular Inhibitor of Apoptosis-1 RNA, sample ISIS 23335: phosphorothioate oligodeoxynucleotide ttaaggactattcagcta, 5′ UTR target site 216 (antisense dT*dT*dA*dA*dG*dG*dA*dC*dT*dA*dT*dT*dC*dA*dG*dC*dT*dA) , % Inhibition of Cellular Inhibitor of Apoptosis-1 mRNA levels read: 0

Assay human Cellular Inhibitor of Apoptosis-1 RNA, sample ISIS 23359: phosphorothioate oligodeoxynucleotide ctcagatttgaaatgcta, Coding target site 1936 (antisense dC*dT*dC*dA*dG*dA*dT*dT*dT*dG*dA*dA*dA*dT*dG*dC*dT*dA) , % Inhibition of Cellular Inhibitor of Apoptosis-1 mRNA levels read: 0

Assay human Cellular Inhibitor of Apoptosis-1 RNA, sample ISIS 23347: phosphorothioate oligodeoxynucleotide tcaggtaggatgagtatc, 5′ UTR target site 994 (antisense dT*dC*dA*dG*dG*dT*dA*dG*dG*dA*dT*dG*dA*dG*dT*dA*dT*dC) , % Inhibition of Cellular Inhibitor of Apoptosis-1 mRNA levels read: 11

Assay human Cellular Inhibitor of Apoptosis-1 RNA, sample ISIS 23355: phosphorothioate oligodeoxynucleotide gagtaagaaccactgaac, Coding target site 1603 (antisense dG*dA*dG*dT*dA*dA*dG*dA*dA*dC*dC*dA*dC*dT*dG*dA*dA*dC) , % Inhibition of Cellular Inhibitor of Apoptosis-1 mRNA levels read: 0

Give measured % Inhibition of Cellular Inhibitor of Apoptosis-1 mRNA levels for every item shown.
1. ISIS 23354: phosphorothioate oligodeoxynucleotide ccaaggtgggagataatg, Coding target site 1572 (antisense dC*dC*dA*dA*dG*dG*dT*dG*dG*dG*dA*dG*dA*dT*dA*dA*dT*dG)
2. ISIS 23367: phosphorothioate oligodeoxynucleotide gaccacaaggaataaata, Coding target site 2904 (antisense dG*dA*dC*dC*dA*dC*dA*dA*dG*dG*dA*dA*dT*dA*dA*dA*dT*dA)
3. ISIS 23363: phosphorothioate oligodeoxynucleotide ttttactttgaactgttt, Coding target site 2391 (antisense dT*dT*dT*dT*dA*dC*dT*dT*dT*dG*dA*dA*dC*dT*dG*dT*dT*dT)
4. ISIS 23357: phosphorothioate oligodeoxynucleotide tggtaggtaagaaatctg, Coding target site 1717 (antisense dT*dG*dG*dT*dA*dG*dG*dT*dA*dA*dG*dA*dA*dA*dT*dC*dT*dG)

3
0
0
0

----------
- System: human Cellular Inhibitor of Apoptosis-1 RNA
- measurement description: Inhibition of Cellular Inhibitor of Apoptosis-1 mRNA levels by quantitative real-time PCR after oligonucleotide treatment of cells
- Type: cell-based
- condition label: phosphorothioate oligodeoxynucleotides; oligonucleotide at final concentration of 150 nM with LIPOFECTIN; real-time PCR; averages from three experiments
Strand notation (5' to 3'): a small letter for the sugar, then the base; units joined by * are phosphorothioate-linked, units joined directly phosphodiester-linked; [ ] holds rarer units or linkages, { } end groups; capitals alone tell only the bases. d = 2'-deoxy (DNA)
observed property: % Inhibition of Cellular Inhibitor of Apoptosis-1 mRNA levels (%)
Numbers only, in %.

Lab book: % Inhibition of Cellular Inhibitor of Apoptosis-1 mRNA levels of ISIS 23341: phosphorothioate oligodeoxynucleotide aagcactttaacatgaca, 5′ UTR target site 661 (antisense dA*dA*dG*dC*dA*dC*dT*dT*dT*dA*dA*dC*dA*dT*dG*dA*dC*dA) noted as 15

Give measured % Inhibition of Cellular Inhibitor of Apoptosis-1 mRNA levels for every item shown.
1. ISIS 23371: phosphorothioate oligodeoxynucleotide agtgaaaagcaccaaaga, 3′ UTR target site 3407 (antisense dA*dG*dT*dG*dA*dA*dA*dA*dG*dC*dA*dC*dC*dA*dA*dA*dG*dA)
2. ISIS 23344: phosphorothioate oligodeoxynucleotide tgccttttatttatattt, 5′ UTR target site 764 (antisense dT*dG*dC*dC*dT*dT*dT*dT*dA*dT*dT*dT*dA*dT*dA*dT*dT*dT)
3. ISIS 23351: phosphorothioate oligodeoxynucleotide tagagttcacaggaaaag, Coding target site 1285 (antisense dT*dA*dG*dA*dG*dT*dT*dC*dA*dC*dA*dG*dG*dA*dA*dA*dA*dG)

1: 0; 2: 0; 3: 0

----------
- Tested on: human Cellular Inhibitor of Apoptosis-1 RNA
- measurement description: Inhibition of Cellular Inhibitor of Apoptosis-1 mRNA levels by quantitative real-time PCR after oligonucleotide treatment of cells
- Assay type: cell-based
- condition label: phosphorothioate oligodeoxynucleotides; oligonucleotide at final concentration of 150 nM with LIPOFECTIN; real-time PCR; averages from three experiments
Strand notation (5' to 3'): a small letter for the sugar, then the base; units joined by * are phosphorothioate-linked, units joined directly phosphodiester-linked; [ ] holds rarer units or linkages, { } end groups; capitals alone tell only the bases. d = 2'-deoxy (DNA)
Hi there, I'd appreciate the recorded % Inhibition of Cellular Inhibitor of Apoptosis-1 mRNA levels for every entry that follows.
Answers are plain numbers, in %.

Give measured % Inhibition of Cellular Inhibitor of Apoptosis-1 mRNA levels for every item shown.
1. ISIS 23349: phosphorothioate oligodeoxynucleotide acctgggaaaagtctttg, Coding target site 1178 (antisense dA*dC*dC*dT*dG*dG*dG*dA*dA*dA*dA*dG*dT*dC*dT*dT*dT*dG)
2. ISIS 23370: phosphorothioate oligodeoxynucleotide ttcctggtttccagttct, 3′ UTR target site 3355 (antisense dT*dT*dC*dC*dT*dG*dG*dT*dT*dT*dC*dC*dA*dG*dT*dT*dC*dT)
3. ISIS 23333: phosphorothioate oligodeoxynucleotide aatcaactctactagcct, 5′ UTR target site 68 (antisense dA*dA*dT*dC*dA*dA*dC*dT*dC*dT*dA*dC*dT*dA*dG*dC*dC*dT)
4. ISIS 23365: phosphorothioate oligodeoxynucleotide tcgcttgtaaaggtatct, Coding target site 2661 (antisense dT*dC*dG*dC*dT*dT*dG*dT*dA*dA*dA*dG*dG*dT*dA*dT*dC*dT)

0
46
47
0

----------
- System: human Cellular Inhibitor of Apoptosis-1 RNA
- measurement description: Inhibition of Cellular Inhibitor of Apoptosis-1 mRNA levels by quantitative real-time PCR after oligonucleotide treatment of cells
- Format: cell-based
- condition label: phosphorothioate oligodeoxynucleotides; oligonucleotide at final concentration of 150 nM with LIPOFECTIN; real-time PCR; averages from three experiments
Strand notation (5' to 3'): a small letter for the sugar, then the base; units joined by * are phosphorothioate-linked, units joined directly phosphodiester-linked; [ ] holds rarer units or linkages, { } end groups; capitals alone tell only the bases. d = 2'-deoxy (DNA)
observed property: % Inhibition of Cellular Inhibitor of Apoptosis-1 mRNA levels (%)
Numbers only, in %.

Give measured % Inhibition of Cellular Inhibitor of Apoptosis-1 mRNA levels for every item shown.
1. ISIS 23358: phosphorothioate oligodeoxynucleotide ttcccagttactgagctt, Coding target site 1835 (antisense dT*dT*dC*dC*dC*dA*dG*dT*dT*dA*dC*dT*dG*dA*dG*dC*dT*dT)
2. ISIS 23356: phosphorothioate oligodeoxynucleotide tagaattaagagggtttg, Coding target site 1632 (antisense dT*dA*dG*dA*dA*dT*dT*dA*dA*dG*dA*dG*dG*dG*dT*dT*dT*dG)
3. ISIS 23353: phosphorothioate oligodeoxynucleotide tttctcattggagacgta, Coding target site 1540 (antisense dT*dT*dT*dC*dT*dC*dA*dT*dT*dG*dG*dA*dG*dA*dC*dG*dT*dA)
4. ISIS 23364: phosphorothioate oligodeoxynucleotide catttcttcagcttgttt, Coding target site 2501 (antisense dC*dA*dT*dT*dT*dC*dT*dT*dC*dA*dG*dC*dT*dT*dG*dT*dT*dT)

1: 78; 2: 0; 3: 32; 4: 0

----------
Hi there, I'd appreciate the recorded % Inhibition of Cellular Inhibitor of Apoptosis-1 mRNA levels for every entry that follows.
- Test system: human Cellular Inhibitor of Apoptosis-1 RNA
- measurement description: Inhibition of Cellular Inhibitor of Apoptosis-1 mRNA levels by quantitative real-time PCR after oligonucleotide treatment of cells
- Assay type: cell-based
- condition label: phosphorothioate oligodeoxynucleotides; oligonucleotide at final concentration of 150 nM with LIPOFECTIN; real-time PCR; averages from three experiments
Strand notation (5' to 3'): a small letter for the sugar, then the base; units joined by * are phosphorothioate-linked, units joined directly phosphodiester-linked; [ ] holds rarer units or linkages, { } end groups; capitals alone tell only the bases. d = 2'-deoxy (DNA)
Answers are plain numbers, in %.

Assay human Cellular Inhibitor of Apoptosis-1 RNA, sample ISIS 23338: phosphorothioate oligodeoxynucleotide ttggcttaaagttcaaaa, 5′ UTR target site 435 (antisense dT*dT*dG*dG*dC*dT*dT*dA*dA*dA*dG*dT*dT*dC*dA*dA*dA*dA) , % Inhibition of Cellular Inhibitor of Apoptosis-1 mRNA levels read: 0

API: the following record is the query input.
Assay human Cellular Inhibitor of Apoptosis-1 RNA, sample ISIS 23369: phosphorothioate oligodeoxynucleotide atatagttcaccaaacat, 3′ UTR target site 3222 (antisense dA*dT*dA*dT*dA*dG*dT*dT*dC*dA*dC*dC*dA*dA*dA*dC*dA*dT) , % Inhibition of Cellular Inhibitor of Apoptosis-1 mRNA levels read: 0
